Below, each entry is listed with its recorded Ki.
- target-system: Atrial natriuretic peptide receptor 1 (Homo sapiens)
- Sequence (P16066 whole entry): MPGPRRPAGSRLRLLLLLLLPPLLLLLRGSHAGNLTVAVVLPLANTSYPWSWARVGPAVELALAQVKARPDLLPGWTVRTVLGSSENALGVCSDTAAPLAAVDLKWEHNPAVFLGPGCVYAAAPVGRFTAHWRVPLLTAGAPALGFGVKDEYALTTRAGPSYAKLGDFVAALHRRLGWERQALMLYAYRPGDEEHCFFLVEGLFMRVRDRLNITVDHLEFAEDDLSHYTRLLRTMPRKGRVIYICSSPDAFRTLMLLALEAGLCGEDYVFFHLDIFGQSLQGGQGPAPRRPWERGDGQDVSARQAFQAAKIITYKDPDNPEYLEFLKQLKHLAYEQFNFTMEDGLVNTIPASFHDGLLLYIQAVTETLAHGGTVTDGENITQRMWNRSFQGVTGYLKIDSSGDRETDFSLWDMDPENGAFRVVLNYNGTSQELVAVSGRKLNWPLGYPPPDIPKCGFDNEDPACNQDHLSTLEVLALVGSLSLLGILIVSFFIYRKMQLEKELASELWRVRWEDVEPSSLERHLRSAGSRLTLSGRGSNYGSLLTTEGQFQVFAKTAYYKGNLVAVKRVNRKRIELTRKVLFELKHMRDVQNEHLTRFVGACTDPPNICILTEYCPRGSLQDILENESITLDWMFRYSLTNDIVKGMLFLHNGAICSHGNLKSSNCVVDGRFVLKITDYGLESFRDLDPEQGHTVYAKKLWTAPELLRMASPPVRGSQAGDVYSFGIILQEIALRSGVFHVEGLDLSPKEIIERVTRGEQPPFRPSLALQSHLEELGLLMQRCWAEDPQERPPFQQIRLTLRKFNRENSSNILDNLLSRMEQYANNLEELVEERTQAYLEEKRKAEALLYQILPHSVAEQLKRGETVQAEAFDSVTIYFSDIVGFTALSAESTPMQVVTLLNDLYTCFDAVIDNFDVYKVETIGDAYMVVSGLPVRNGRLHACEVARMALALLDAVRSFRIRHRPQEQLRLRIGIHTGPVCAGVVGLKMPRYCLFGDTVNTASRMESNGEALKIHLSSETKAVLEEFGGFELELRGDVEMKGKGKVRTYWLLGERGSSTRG
Numbered stars: 1 amine (or outer) side, 2 acyl side, 3 side chain; on linkers, the order of the positions; unused ones are H or OH. Square brackets hold non-standard residues; d marks the D form. Peptide text beside a SMILES is read from it. * marks the point of attachment. NH(2S-methylbutyl) = CC[C@H](C)CN*; 2Naphthoyl = O=C(c1ccc2ccccc2c1)*; X1 = O=C(Cc1ccc(N[*:1])cc1)[*:2]; PhAc = O=C(Cc1ccccc1)*; X2 = CCC[C@H](C)CN*
Supply the numeric figure in nM, leaving out any unit text.

CC[C@H](C)CNC(=O)[C@H](CCCNC(=N)N)NC(=O)[C@H](C)NC(=O)[C@@H](NC(=O)[C@H](CCCNC(=N)N)NC(=O)Cc1ccc(NC(=O)c2ccc3ccccc3c2)cc1)[C@@H](C)CC (2Naphthoyl-[X1]RIAR-{NH(2S-methylbutyl)}); 62
CCC[C@H](C)CNC(=O)[C@H](CCCNC(=N)N)NC(=O)[C@H](CC(=O)O)NC(=O)[C@@H](NC(=O)[C@H](CCCNC(=N)N)NC(C)=O)[C@@H](C)CC (Ac-RIDR-X2); 2900
CC[C@H](C)CNC(=O)[C@H](C)NC(=O)[C@H](CC(=O)O)NC(=O)[C@@H](NC(=O)[C@H](C)NC(=O)Cc1ccc(NC(=O)c2ccc3ccccc3c2)cc1)[C@@H](C)CC (2Naphthoyl-[X1]AIDA-{NH(2S-methylbutyl)}); 65
CCC[C@H](C)CNC(=O)[C@H](CCCN=C(N)N)NC(=O)[C@H](CC(=O)O)NC(=O)[C@@H](NC(=O)[C@H](CCCN=C(N)N)NC(=O)Cc1ccccc1)[C@@H](C)CC (PhAc-RIDR-X2); 539

Now take the following compound into account.
Answer briefly: Ki recorded on Atrial natriuretic peptide receptor 1 (Homo sapiens) for CC[C@H](C)[C@H](NC(=O)[C@H](CCCNC(=N)N)NC(=O)Cc1ccc(NC(=O)c2ccc3ccccc3c2)cc1)C(=O)N[C@@H](CC(=O)O)C(=O)N[C@@H](CCCNC(=N)N)C(N)=O (2Naphthoyl-[X1]RIDR-NH2)
2600
